target.system: SMARCA2 (Homo sapiens, UniProt P51531)
Sequence (P51531 whole entry): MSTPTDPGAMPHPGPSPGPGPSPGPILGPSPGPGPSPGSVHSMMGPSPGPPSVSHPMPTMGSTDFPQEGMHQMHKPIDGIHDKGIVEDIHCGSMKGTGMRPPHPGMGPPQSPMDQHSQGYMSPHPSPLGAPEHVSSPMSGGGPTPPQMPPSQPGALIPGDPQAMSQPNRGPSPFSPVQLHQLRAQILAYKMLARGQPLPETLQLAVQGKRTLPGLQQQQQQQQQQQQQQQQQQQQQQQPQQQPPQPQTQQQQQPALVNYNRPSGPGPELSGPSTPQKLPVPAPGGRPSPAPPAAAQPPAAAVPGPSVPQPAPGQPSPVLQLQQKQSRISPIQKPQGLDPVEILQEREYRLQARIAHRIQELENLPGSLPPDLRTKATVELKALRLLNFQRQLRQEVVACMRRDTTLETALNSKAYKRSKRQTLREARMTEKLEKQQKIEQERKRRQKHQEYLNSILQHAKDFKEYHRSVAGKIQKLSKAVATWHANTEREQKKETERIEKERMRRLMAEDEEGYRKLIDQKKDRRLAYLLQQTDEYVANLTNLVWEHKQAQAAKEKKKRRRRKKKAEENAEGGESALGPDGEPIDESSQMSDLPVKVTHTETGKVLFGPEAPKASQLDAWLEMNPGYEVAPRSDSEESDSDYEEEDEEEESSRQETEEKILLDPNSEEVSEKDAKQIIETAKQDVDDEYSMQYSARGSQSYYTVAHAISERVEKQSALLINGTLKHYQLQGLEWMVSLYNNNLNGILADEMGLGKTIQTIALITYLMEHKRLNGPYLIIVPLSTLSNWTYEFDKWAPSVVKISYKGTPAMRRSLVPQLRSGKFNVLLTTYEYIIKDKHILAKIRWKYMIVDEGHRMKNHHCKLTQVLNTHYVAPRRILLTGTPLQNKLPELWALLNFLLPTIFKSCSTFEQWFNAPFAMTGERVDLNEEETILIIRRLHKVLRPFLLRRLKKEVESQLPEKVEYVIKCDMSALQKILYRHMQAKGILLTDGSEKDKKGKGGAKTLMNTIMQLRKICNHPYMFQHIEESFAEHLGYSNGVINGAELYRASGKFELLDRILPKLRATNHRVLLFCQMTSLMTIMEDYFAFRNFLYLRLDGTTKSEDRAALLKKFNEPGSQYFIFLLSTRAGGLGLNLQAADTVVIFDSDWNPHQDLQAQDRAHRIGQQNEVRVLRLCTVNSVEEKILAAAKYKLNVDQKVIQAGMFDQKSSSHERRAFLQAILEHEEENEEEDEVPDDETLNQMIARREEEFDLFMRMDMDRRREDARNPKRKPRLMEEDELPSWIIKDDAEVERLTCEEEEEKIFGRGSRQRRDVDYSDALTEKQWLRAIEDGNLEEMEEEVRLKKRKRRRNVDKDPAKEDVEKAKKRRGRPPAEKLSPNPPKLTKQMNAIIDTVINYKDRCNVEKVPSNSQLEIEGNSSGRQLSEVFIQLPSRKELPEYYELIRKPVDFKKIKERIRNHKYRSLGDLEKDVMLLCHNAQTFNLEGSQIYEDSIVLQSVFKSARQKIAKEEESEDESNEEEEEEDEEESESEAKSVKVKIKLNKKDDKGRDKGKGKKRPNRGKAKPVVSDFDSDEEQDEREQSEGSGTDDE
assay.info: MSD SMARCA2 degradation in A549 cell line
Assay type: cell-based
conditions.used: A549 cells, 24 h, read-out: SMARCA2 MSD A549 degradation 24 h: Average external-Abs DC50
observation.type: DC50

Entry Cc1ncsc1-c1ccc(CNC(=O)[C@@H]2C[C@@H](O)CN2C(=O)[C@@H](NC(=O)[C@H]2CC3(C[C@H](CN4CCC(c5cnc(N6C7CCC6CN(c6cc(-c8ccccc8O)nnc6N)C7)nc5)CC4)C3)C2)C(C)(C)C)cc1 (some centres unmarked) [I-426] — recorded DC50 = 100 to 500 nM

Entry Cc1ncsc1-c1ccc(CNC(=O)[C@@H]2C[C@@H](O)CN2C(=O)[C@@H](NC(=O)N[C@H]2CC[C@H](c3cnc(N4C5CCC4CN(c4cc(-c6ccccc6O)nnc4N)C5)nc3)CC2)C(C)(C)C)cc1 [I-333] — recorded DC50 = > 1000 nM

----------
target.system: SMARCA2 (Homo sapiens)
assay.info: MSD SMARCA2 degradation in NCI-H1299 cell line (24 h)
Assay type: cell-based
Design: HC: NCI-H1299 cells treated with DMSO; host or cells: NCI-H1299
conditions.used: NCI-H1299, NCI-H1299 cells
Each entry below carries its reported Dmax.

Examples with answers:
Entry O=C1CCC(N2C(=O)c3cccc(OCCc4cn(CCCc5cccc(N6C[C@H]7C[C@@H]6CN7/C=C/C(=O)c6ccccc6O)n5)nn4)c3C2=O)C(=O)N1 (some centres unmarked) — recorded Dmax = < 50%

Entry `COc1cc(C(=O)NCCCCCCCCCN2CCN(Cc3ccc(-c4cc(-c5ccccc5O)nnc4N)cc3)CC2)ccc1NC(=O)[C@@H]1N[C@@H](CC(C)(C)C)[C@](C#N)(c2ccc(Cl)cc2F)[C@H]1c1cccc(Cl)c1F` — recorded Dmax = < 50%

Entry `Cc1ncsc1-c1ccc(CNC(=O)[C@@H]2C[C@@H](O)CN2C(=O)[C@@H](NC(=O)CCCCCCCN2CCC(Cn3cc(-c4cc(-c5ccccc5O)nnc4N)cn3)CC2)C(C)(C)C)cc1` — recorded Dmax = > 90%

Entry CN(CCCc1cnc(N2C3CCC2CN(c2cc(-c4ccccc4O)nnc2N)C3)nc1)CCCc1ccc2c(c1)n(C)c(=O)n2C1CCC(=O)NC1=O (centres unmarked) — recorded Dmax = > 90%

Consider the additional molecule presented here.
Entry Cn1c(=O)n(C2CCC(=O)NC2=O)c2ccc(CCCCCCCCc3cnc(N4C5CCC4CN(c4cc(-c6ccccc6O)nnc4N)C5)nc3)cc21 (centres unmarked) — recorded Dmax = > 90%

----------
target.system: SMARCA4 (Homo sapiens, UniProt P51532)
Construct: SMARCA2 and SMARCA4 protein degradation in MV4-11 cells; endogenous in cells; host or cells: MV4-11
Sequence (P51532 whole entry): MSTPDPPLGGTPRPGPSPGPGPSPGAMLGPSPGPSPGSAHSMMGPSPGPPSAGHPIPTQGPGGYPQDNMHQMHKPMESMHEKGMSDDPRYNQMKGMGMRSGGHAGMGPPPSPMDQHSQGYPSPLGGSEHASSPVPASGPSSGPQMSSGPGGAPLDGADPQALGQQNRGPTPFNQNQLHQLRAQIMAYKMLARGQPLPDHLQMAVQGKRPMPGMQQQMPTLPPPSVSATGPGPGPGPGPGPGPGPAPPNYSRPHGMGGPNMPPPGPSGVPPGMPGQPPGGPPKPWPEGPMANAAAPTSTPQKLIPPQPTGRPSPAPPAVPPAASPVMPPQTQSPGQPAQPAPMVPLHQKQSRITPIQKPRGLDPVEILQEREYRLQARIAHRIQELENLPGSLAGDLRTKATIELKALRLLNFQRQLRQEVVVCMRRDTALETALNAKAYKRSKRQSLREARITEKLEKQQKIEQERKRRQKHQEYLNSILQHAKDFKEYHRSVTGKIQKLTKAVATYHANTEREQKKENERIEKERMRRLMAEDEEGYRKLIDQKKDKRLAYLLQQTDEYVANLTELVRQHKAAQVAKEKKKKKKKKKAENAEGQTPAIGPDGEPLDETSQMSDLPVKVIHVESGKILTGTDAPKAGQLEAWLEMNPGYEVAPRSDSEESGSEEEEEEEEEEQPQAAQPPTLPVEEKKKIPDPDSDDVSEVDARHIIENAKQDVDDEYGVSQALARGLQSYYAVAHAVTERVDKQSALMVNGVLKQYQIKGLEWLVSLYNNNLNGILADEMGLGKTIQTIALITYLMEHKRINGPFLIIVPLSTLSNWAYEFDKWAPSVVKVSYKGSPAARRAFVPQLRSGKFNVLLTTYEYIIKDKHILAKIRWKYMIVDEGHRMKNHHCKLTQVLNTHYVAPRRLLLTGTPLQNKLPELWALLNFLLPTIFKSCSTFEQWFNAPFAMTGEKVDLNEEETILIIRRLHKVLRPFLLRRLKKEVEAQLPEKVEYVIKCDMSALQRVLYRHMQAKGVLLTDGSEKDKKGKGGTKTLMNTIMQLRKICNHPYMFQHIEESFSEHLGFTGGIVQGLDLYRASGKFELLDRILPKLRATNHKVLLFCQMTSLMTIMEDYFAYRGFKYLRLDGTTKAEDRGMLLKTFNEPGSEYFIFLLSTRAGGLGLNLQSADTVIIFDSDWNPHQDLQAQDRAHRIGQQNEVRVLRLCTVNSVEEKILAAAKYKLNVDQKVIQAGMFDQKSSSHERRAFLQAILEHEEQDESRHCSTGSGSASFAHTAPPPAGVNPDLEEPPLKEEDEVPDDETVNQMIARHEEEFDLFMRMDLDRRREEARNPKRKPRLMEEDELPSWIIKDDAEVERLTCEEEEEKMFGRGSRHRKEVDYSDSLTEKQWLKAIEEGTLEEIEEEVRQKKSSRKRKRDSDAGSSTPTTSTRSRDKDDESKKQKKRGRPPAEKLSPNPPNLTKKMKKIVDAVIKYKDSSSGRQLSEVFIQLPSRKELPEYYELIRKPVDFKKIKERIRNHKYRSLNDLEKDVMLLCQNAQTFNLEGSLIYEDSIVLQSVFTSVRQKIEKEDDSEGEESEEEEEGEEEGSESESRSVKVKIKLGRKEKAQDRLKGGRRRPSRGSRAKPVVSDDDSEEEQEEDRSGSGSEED
assay.info: SMARCA4 Western blot MV4-11 degradation
Assay type: cell-based
conditions.used: MV4-11, MV4-11 cells, 24 h, read-out: SMARCA4 WB MV411 degradation 24 h: Average Dmax %
observation.type: Dmax

Entry `Cc1ncsc1-c1ccc(CNC(=O)[C@@H]2C[C@@H](O)CN2C(=O)[C@@H](NC(=O)[C@@H](C)N2CCC(c3cnc(N4C5CCC4CN(c4cc(-c6ccccc6O)nnc4N)C5)nc3)CC2)C(C)(C)C)cc1` — recorded Dmax = > 90%

New cases:
Entry `Cc1ncsc1-c1ccc(CNC(=O)[C@@H]2C[C@@H](O)CN2C(=O)[C@@H](NC(=O)[C@H]2CC[C@@H](N3CCC(c4cnc(N5C6CCC5CN(c5cc(-c7ccccc7O)nnc5N)C6)nc4)CC3)CC2)C(C)(C)C)cc1` — recorded Dmax = 50 to 70%

Entry `Cc1ncsc1-c1ccc(CNC(=O)[C@@H]2C[C@@H](O)CN2C(=O)[C@@H](NC(=O)CN2CCC(c3nccc(N4C5CCC4CN(c4cc(-c6ccccc6O)nnc4N)C5)n3)CC2)C(C)(C)C)cc1` — recorded Dmax = 50 to 70%

Entry `Cc1ncsc1-c1ccc(CNC(=O)[C@@H]2C[C@@H](O)CN2C(=O)[C@@H](NC(=O)[C@H]2CC[C@H](N3CCC(n4cc(-c5cc(-c6ccccc6O)nnc5N)cn4)CC3)CC2)C(C)(C)C)cc1` — recorded Dmax = < 50%

Entry `Cc1ncsc1-c1ccc(CNC(=O)[C@@H]2C[C@@H](O)CN2C(=O)[C@@H](NC(=O)CN2CCC(c3cnc(N4CCN(c5cc(-c6ccccc6O)nnc5N)CC4)nc3)CC2)C(C)(C)C)cc1` — recorded Dmax = 70 to 90%
